# targetEntity: RPA WT (RPA70-RPA32-RPA14) (human, UniProt P27694;P15927;P35244 1-616;1-270;1-121)
# Sequence (P27694 whole entry, chain 1 of 3): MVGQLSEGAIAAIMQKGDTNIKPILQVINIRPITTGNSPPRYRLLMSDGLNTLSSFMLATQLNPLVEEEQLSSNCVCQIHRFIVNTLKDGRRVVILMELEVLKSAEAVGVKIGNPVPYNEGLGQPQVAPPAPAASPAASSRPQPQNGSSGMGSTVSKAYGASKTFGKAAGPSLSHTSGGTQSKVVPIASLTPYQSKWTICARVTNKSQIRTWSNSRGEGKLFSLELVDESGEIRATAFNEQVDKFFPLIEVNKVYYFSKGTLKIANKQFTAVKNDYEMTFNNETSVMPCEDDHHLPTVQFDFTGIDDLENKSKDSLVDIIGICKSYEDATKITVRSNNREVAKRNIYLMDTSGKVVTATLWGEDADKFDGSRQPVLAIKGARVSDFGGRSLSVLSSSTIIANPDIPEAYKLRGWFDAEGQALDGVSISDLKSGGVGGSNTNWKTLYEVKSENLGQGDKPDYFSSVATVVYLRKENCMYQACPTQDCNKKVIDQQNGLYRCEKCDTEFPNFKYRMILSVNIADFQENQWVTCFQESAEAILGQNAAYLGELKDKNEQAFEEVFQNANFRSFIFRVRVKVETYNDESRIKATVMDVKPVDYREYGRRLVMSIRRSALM
# Sequence (P15927 whole entry, chain 2 of 3): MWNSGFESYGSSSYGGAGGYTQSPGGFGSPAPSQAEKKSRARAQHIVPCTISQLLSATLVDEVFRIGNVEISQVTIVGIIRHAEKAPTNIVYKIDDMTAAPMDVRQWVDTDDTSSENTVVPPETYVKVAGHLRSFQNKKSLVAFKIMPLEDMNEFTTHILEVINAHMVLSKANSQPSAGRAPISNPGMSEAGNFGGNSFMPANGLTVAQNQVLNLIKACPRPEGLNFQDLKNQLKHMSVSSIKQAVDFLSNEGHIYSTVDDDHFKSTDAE
# Sequence (P35244 whole entry, chain 3 of 3): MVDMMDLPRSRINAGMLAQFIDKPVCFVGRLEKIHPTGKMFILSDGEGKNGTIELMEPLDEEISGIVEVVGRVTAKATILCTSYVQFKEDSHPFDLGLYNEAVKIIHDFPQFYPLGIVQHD
# experimentDescription: fluorescence anisotropy; 200 mM LiCl; FA: 200 mM NaCl, KCl or LiCl, 20 mM HEPES pH 7.4, 1 mM DTT, 22-25 C, 375 or 750 pM oligo, Kd,app +/- SEM; EMSA: 20 mM HEPES pH 7.4, 200 mM KCl, 1 nM 32P oligo
# conditionSummary: protein: recombinant; tags: 6xHis N-term on RPA70 and RPA14; copies: 1;1;1; label: 5' fluorescein; intramolecular G4 at 5' end, 18 nt 3' tail; linear in LiCl
quantity: pKd
Give bare numbers, as −log10 of the molar value.

Looking up AGGGTTAGGGTTAGGGTTAGGGTGAGTGTGAGTGTGAGTG (structured_DNA) [Tel40 5' G4] , I see its pKd listed as 9.09
